# Test system: 786-O
# Method: Euclidean distance of Cell Painting phenotypic profile (signed KS, 77 features) to DMSO centroid (dimensionless distance); 5 or 10 uM (library dependent); higher = stronger phenotypic change vs DMSO (phenoactivity)
# Condition notes: 48 h
Counter-ions that a name gives are not always drawn.
Measured quantity: Euclidean distance
Please respond with just the number, no unit label.

Look up and report measured Euclidean distance for this entry: CN[C@@H]1[C@@H](O)[C@@H](O[C@@H]2[C@@H](O)[C@H](O[C@H]3O[C@H](CN)[C@@H](O)[C@H](O)[C@H]3O)[C@@H](N)C[C@H]2NC(=O)[C@@H](O)CN)OC[C@]1(C)O [Isepamicin Sulphate]
1.12

Look up and report measured Euclidean distance for this entry: CCN(CC)CCCCNc1ncc2cc(-c3cc(OC)cc(OC)c3)c(NC(=O)NC(C)(C)C)nc2n1
3.18

Look up and report measured Euclidean distance for this entry: Cc1ccc2c(Cl)cc(Cl)c(O)c2n1
2.59

Look up and report measured Euclidean distance for this entry: CC1(C)S[C@@H]2[C@H](NC(=O)[C@H](N)c3ccc(O)cc3)C(=O)N2[C@H]1C(=O)O [Amoxicillin Sodium]
1.03

Look up and report measured Euclidean distance for this entry: C=C1CCN([C@H](C)[C@](O)(Cn2cncn2)c2ccc(F)cc2F)CC1
0.843

Look up and report measured Euclidean distance for this entry: COc1ccc(-c2nc3cc(C4=NNC(=O)CC4C)ccc3[nH]2)cc1 (stereo unspecified)
1.43

Look up and report measured Euclidean distance for this entry: CC[C@@H]1C(=O)N(C)c2cnc(Nc3ccc(C(=O)N[C@H]4CC[C@H](N5CCN(CC6CC6)CC5)CC4)cc3OC)nc2N1C(C)C
4.44

Look up and report measured Euclidean distance for this entry: CO/N=C(\C(=O)N[C@@H]1C(=O)N2C(C(=O)O)=CCS[C@H]12)c1csc(N)n1 [Ceftizoxime sodium]
0.557

Look up and report measured Euclidean distance for this entry: CNC[C@H](O)c1ccc(O)c(O)c1 [Epinephrine HCl]
1.19

Look up and report measured Euclidean distance for this entry: COCCNc1cc(NC(=O)N2CCCc3cc(CN4CCN(C)CC4=O)c(C=O)nc32)ncc1C#N
0.599

Look up and report measured Euclidean distance for this entry: CN(C)CCOC(c1ccc(Cl)cc1)c1ccccn1 (stereo unspecified) [CarbinoxaMine Maleate]
1.32

Look up and report measured Euclidean distance for this entry: COc1cc(N)c(Cl)cc1C(=O)NC1CCN(Cc2ccccc2)CC1 [Clebopride (malate)]
1.13

Look up and report measured Euclidean distance for this entry: COc1ccccc1OCC(O)COC(N)=O (stereo unspecified)
1.4

Look up and report measured Euclidean distance for this entry: OCC(O)CN1CCN(c2ccccc2)CC1 (stereo unspecified)
1.11

Look up and report measured Euclidean distance for this entry: Cc1nc(N(C)C(=O)Cc2ccc(-c3ccccn3)cc2)sc1S(N)(=O)=O
0.793

Look up and report measured Euclidean distance for this entry: CC(/C=C/C(=O)NO)=C\[C@@H](C)C(=O)c1ccc(N(C)C)cc1
3.62

====

Provide the recorded Euclidean distance for the entries that follow.
# System: HEPG2
# Method: Euclidean distance of Cell Painting phenotypic profile (signed KS, 77 features) to DMSO centroid (dimensionless distance); 5 or 10 uM (library dependent); higher = stronger phenotypic change vs DMSO (phenoactivity)
# Condition notes: 48 h
Where a name gives a salt, the structure may show the parent alone.
Please respond with just the number, no unit label.

Look up and report measured Euclidean distance for this entry: CC(=O)Oc1cc(C(F)(F)F)ccc1C(=O)O [Triflusal]
0.829

Look up and report measured Euclidean distance for this entry: Cc1cc(C)nc(NS(=O)(=O)c2ccc(N)cc2)n1 [Sulfamethazine Sodium Salt]
0.494

Look up and report measured Euclidean distance for this entry: CC1=C[C@H](O)CC(C)(C)[C@H]1/C=C/C(C)=C/C=C/C(C)=C/C=C/C=C(C)/C=C/C=C(C)/C=C/C1=C(C)C[C@@H](O)CC1(C)C [lutein]
1.18

Look up and report measured Euclidean distance for this entry: COc1ccc(CC2c3cc(OC)c(OC)cc3CC[N+]2(C)CCC(=O)OCCCCCOC(=O)CC[N+]2(C)CCc3cc(OC)c(OC)cc3C2Cc2ccc(OC)c(OC)c2)cc1OC (centres undefined) [Atracurium Besylate]
1.14

====

# Test system: 786-O
# Method: Euclidean distance of Cell Painting phenotypic profile (signed KS, 77 features) to DMSO centroid (dimensionless distance); 5 or 10 uM (library dependent); higher = stronger phenotypic change vs DMSO (phenoactivity)
# Condition notes: 48 h
Counter-ions that a name gives are not always drawn.
Measured quantity: Euclidean distance
Please respond with just the number, no unit label.

Write down measured Euclidean distance (786-O) for this molecule. OC(CNCC(O)C1CCc2cc(F)ccc2O1)C1CCc2cc(F)ccc2O1 (centres undefined) [Nebivolol]
1.39

Write down measured Euclidean distance (786-O) for this molecule. CC1CC(OC(=O)C(O)c2ccccc2)CC(C)(C)C1 (centres undefined) [Cyclandelate]
1.19

Write down measured Euclidean distance (786-O) for this molecule. CCN(CC)CCOCCOC(=O)C1(c2ccccc2)CCCC1 [Pentoxyverine Citrate]
0.795

Write down measured Euclidean distance (786-O) for this molecule. COc1ccc(C(Cl)=C(c2ccc(OC)cc2)c2ccc(OC)cc2)cc1 [Chlorotrianisene]
1.13

Write down measured Euclidean distance (786-O) for this molecule. COc1cc(/C=C/C(=O)O)ccc1O [Sodium ferulate]
1.56

Write down measured Euclidean distance (786-O) for this molecule. C[C@@H](OC[C@@]1(c2ccccc2)CC[C@]2(CCC(=O)N2)CN1)c1cc(C(F)(F)F)cc(C(F)(F)F)c1 [Rolapitant]
1.23

Write down measured Euclidean distance (786-O) for this molecule. N#CSc1cc(SC#N)c(N)nc1N
0.526

Write down measured Euclidean distance (786-O) for this molecule. CCCSc1ccc2[nH]c(NC(=O)OC)nc2c1 [Albendazole]
2.6

Write down measured Euclidean distance (786-O) for this molecule. COc1cc2c(cc1O)CC[C@@H]1[C@@H]2CC[C@]2(C)[C@@H](O)CC[C@@H]12 [2-Methoxyestradiol (2-MeOE2)]
2.47

====

Provide the recorded Euclidean distance for the entries that follow.
# System: HEPG2
# Method: Euclidean distance of Cell Painting phenotypic profile (signed KS, 77 features) to DMSO centroid (dimensionless distance); 5 or 10 uM (library dependent); higher = stronger phenotypic change vs DMSO (phenoactivity)
# Condition notes: 48 h
Counter-ions that a name gives are not always drawn.
Please respond with just the number, no unit label.

Look up and report measured Euclidean distance for this entry: O=C(O)c1cc(=O)c2ccccc2o1 [Chromocarb]
0.887

Look up and report measured Euclidean distance for this entry: CC(C)(CO)c1cc2cc(NC(=O)C3(c4ccc5c(c4)OC(F)(F)O5)CC3)c(F)cc2n1C[C@@H](O)CO
0.904

Look up and report measured Euclidean distance for this entry: Cc1cccc(Nc2cc(Cl)nc(SCC(=O)O)n2)c1C
0.873

Look up and report measured Euclidean distance for this entry: O=C(O)c1cn(-c2ccc(F)cc2)c2cc(N3CCNCC3)c(F)cc2c1=O [Sarafloxacin HCl]
0.601

Look up and report measured Euclidean distance for this entry: CCCCC(CC)COC(=O)CC(C(=O)OCC(CC)CCCC)S(=O)(=O)O (centres undefined) [Docusate Sodium]
0.96

Look up and report measured Euclidean distance for this entry: CO/N=C(\C(=O)N[C@@H]1C(=O)N2C(C(=O)OCOC(=O)C(C)(C)C)=C(/C=C\c3scnc3C)CS[C@H]12)c1csc(N)n1 [Cefditoren Pivoxil]
2.12

Look up and report measured Euclidean distance for this entry: Cc1ccc(NC(=O)c2cccc(C(C)(C)C#N)c2)cc1Nc1ccc2ncn(C)c(=O)c2c1
1.53

Look up and report measured Euclidean distance for this entry: CCc1cncnc1N1CCN(Cc2nc3ccc(C(F)(F)F)cc3[nH]2)CC1
0.883

Look up and report measured Euclidean distance for this entry: CCC(=O)c1c(O)cc(O)cc1O [Flopropione]
0.447

Look up and report measured Euclidean distance for this entry: Cc1onc(-c2c(F)cccc2Cl)c1C(=O)N[C@@H]1C(=O)N2[C@@H]1SC(C)(C)[C@@H]2C(=O)O [Flucloxacillin sodium]
0.664

Look up and report measured Euclidean distance for this entry: CCOCC(O)COc1ccc(NC(=O)CC[S+](C)C)cc1 (centres undefined) [Suplatast Tosylate]
0.648

Look up and report measured Euclidean distance for this entry: O=C(O)c1ccc(CN2CCC(CN[C@@H]3C[C@H]3c3ccccc3)CC2)cc1
1.11

Look up and report measured Euclidean distance for this entry: C[C@@H](CN1CC(=O)NC(=O)C1)N1CC(=O)NC(=O)C1 [Dexrazoxane HCl (ICRF-187. ADR-529)]
1.47

Look up and report measured Euclidean distance for this entry: CCc1c(C)[nH]c2c1C(=O)C(CN1CCOCC1)CC2 (centres undefined) [Molindone hydrochloride]
0.317

Look up and report measured Euclidean distance for this entry: Cc1nnc(NS(=O)(=O)c2ccc(N)cc2)s1 [Sulfamethizole]
0.498

Look up and report measured Euclidean distance for this entry: C[C@H](NCc1ccc(OCc2cccc(F)c2)cc1)C(N)=O [Safinamide Mesylate]
0.55

Look up and report measured Euclidean distance for this entry: CO/N=C(\C(=O)N[C@@H]1C(=O)N2C(C(=O)O)=C(CSc3nc(=O)c(O)nn3C)CS[C@H]12)c1csc(N)n1 [Ceftriaxone Sodium Trihydrate]
0.792

Look up and report measured Euclidean distance for this entry: CC1(C)S[C@@H]2[C@H](NC(=O)[C@H](N)c3ccccc3)C(=O)N2[C@H]1C(=O)O [Ampicillin sodium]
0.55

Look up and report measured Euclidean distance for this entry: CCN1CC(CCN2CCOCC2)C(c2ccccc2)(c2ccccc2)C1=O (centres undefined) [Doxapram HCl]
0.498

Look up and report measured Euclidean distance for this entry: FC(F)(F)C(Cl)Br (centres undefined) [Halothane]
0.854

Look up and report measured Euclidean distance for this entry: Cc1ccnc2c1NC(=O)c1cccnc1N2C1CC1 [Nevirapine]
1.93

Look up and report measured Euclidean distance for this entry: O=C(Nc1cc(C(F)(F)F)ccc1N1CCCCC1)c1ccncc1
0.96

Look up and report measured Euclidean distance for this entry: CCNC(=O)CCC/C=C\C[C@@H]1[C@@H](/C=C/[C@@H](O)CCc2ccccc2)[C@H](O)C[C@@H]1O [Bimatoprost]
0.869

Look up and report measured Euclidean distance for this entry: CN(C)c1ccc(C(=C2C=CC(=[N+](C)C)C=C2)c2ccc(N(C)C)cc2)cc1 [Crystal Violet]
3.45

Look up and report measured Euclidean distance for this entry: O=C1C(=O)N(Cc2ccc(Cl)c(Cl)c2)c2ccccc21 [Apoptosis Activator 2]
0.54

Look up and report measured Euclidean distance for this entry: NCC[C@H](O)C(=O)N[C@@H]1C[C@H](N)[C@@H](O[C@H]2O[C@H](CN)[C@@H](O)[C@H](O)[C@H]2O)[C@H](O)[C@H]1O[C@H]1O[C@H](CO)[C@@H](O)[C@H](N)[C@H]1O [Amikacin hydrate]
1.29

Look up and report measured Euclidean distance for this entry: CC(=O)OCC[N+](C)(C)C [Acetylcholine Chloride]
0.549

Look up and report measured Euclidean distance for this entry: O=C(NC1CCNCC1)c1n[nH]cc1NC(=O)c1c(Cl)cccc1Cl
2.47

Look up and report measured Euclidean distance for this entry: CS(=O)(=O)c1ccc([C@@H](O)[C@@H](CF)NC(=O)C(Cl)Cl)cc1 [Florfenicol]
0.739

Look up and report measured Euclidean distance for this entry: COc1cc(O)c2c(c1)oc(=O)c1c3cc(O)c(O)cc3oc21 [Wedelolactone]
2.5

Look up and report measured Euclidean distance for this entry: CN(Cc1cnc2nc(N)nc(N)c2n1)c1ccc(C(=O)N[C@@H](CCC(=O)O)C(=O)O)cc1 [Methotrexate]
1.55

Look up and report measured Euclidean distance for this entry: FC(F)(c1ccc2ncccc2c1)c1nnc2ccc(-c3ccncc3)nn12
1.24

Look up and report measured Euclidean distance for this entry: CN1CCN(C2CCN(C(=O)Nc3cc(Oc4ccc(NC(=O)C5(C(=O)Nc6ccc(F)cc6)CC5)c(F)c4)ccn3)CC2)CC1 [Golvatinib (E7050)]
3.28

Look up and report measured Euclidean distance for this entry: c1ccc2[nH]c(-c3cscn3)nc2c1 [Thiabendazole]
1.93
